Hello, the source for this data is patent US20230219904A1, in case you need it.

Test system: Echinochloa crus-galh (ECHCG)
run.description: Pre-emergence herbicidal glasshouse test (Table B1)
Type: in vivo
measurement.parameters: applied at 500 g/h, evaluated after 13 days
Description: Seeds of a variety of test species are sown in standard soil in pots (Lolium perenne (LOLPE), Amaranthus retoflexus (AMARE), Abutilon theophrasti (ABUTH), Setaria faberi (SETFA), Echinochloa crus-galh (ECHCG), Ipomoea hederacea (IPOHE)). […] After 13 days for pre and post-emergence, the test is evaluated for the percentage damage caused to the plant. […]
property.name: PRE Application ECHCG, percentage damage on five-point scale

Example cases with answers are listed next.
- CC(F)C(=O)Nc1c(OC(F)(F)F)ccc(C(=O)Nc2nnnn2C)c1Cl (stereo not shown): 1 (1=0-19%)
- CCCC(=O)Nc1c(OC(F)(F)F)ccc(C(=O)Nc2nnnn2CC)c1Cl: 5 (5=80-100%)
- CCn1nnnc1NC(=O)c1ccc(OC(F)(F)F)c(NC(=O)COC)c1Cl: 3 (3=40-59%)

The compound `Cn1nnnc1NC(=O)c1ccc(OC(F)(F)C(F)F)c(NC(=O)C2CC2)c1Cl` showed PRE Application ECHCG, percentage damage on five-point scale equal to 5 (5=80-100%)

// sample CC(F)C(=O)Nc1c(OCC(F)(F)F)ccc(C(=O)Nc2nnnn2C)c1Cl (stereo not shown) , its PRE Application ECHCG, percentage damage on five-point scale was 5 (5=80-100%)

PRE Application ECHCG, percentage damage on five-point scale reported for this compound `COC(C)(C)C(=O)Nc1c(OC(F)(F)F)ccc(C(=O)Nc2nnnn2C)c1Cl` : 5 (5=80-100%)

Recorded result, `CC(=O)N(C)c1c(OC(F)(F)F)ccc(C(=O)Nc2nnnn2C)c1Cl` , PRE Application ECHCG, percentage damage on five-point scale: 5 (5=80-100%)

Input `CC(=O)Nc1c(OC(F)(F)F)ccc(C(=O)Nc2nnc(C)o2)c1Cl` . Output PRE Application ECHCG, percentage damage on five-point scale: 1 (1=0-19%)

---

Test system: Echinochloa crus-galh (ECHCG)
run.description: Pre-emergence herbicidal glasshouse test (Table B1)
Format: in vivo
measurement.parameters: applied at 125 g/ha, evaluated after 13 days
Protocol: Seeds of a variety of test species are sown in standard soil in pots (Lolium perenne (LOLPE), Amaranthus retoflexus (AMARE), Abutilon theophrasti (ABUTH), Setaria faberi (SETFA), Echinochloa crus-galh (ECHCG), Ipomoea hederacea (IPOHE)). […] After 13 days for pre and post-emergence, the test is evaluated for the percentage damage caused to the plant. […]
Recorded PRE Application ECHCG, percentage damage on five-point scale, one value per entry.

Recorded results for 4 compounds are shown here.
- Cc1c(C(=O)Nc2c(OC(F)F)ccc(C(=O)Nc3nnnn3C)c2Cl)nn(C)c1C: 1 (1=0-19%)
- CC(F)C(=O)Nc1c(OC(F)F)ccc(C(=O)Nc2nnnn2C)c1Cl (centres unmarked): 3 (3=40-59%)
- Cn1cc(C(=O)Nc2c(OC(F)(F)F)ccc(C(=O)Nc3nnnn3C)c2Cl)c(C(F)F)n1: 5 (5=80-100%)
- CCn1nnnc1NC(=O)c1ccc(OC(F)(F)F)c(NC(=O)CCCOC)c1Cl: 5 (5=80-100%)

# lookup: `CCOCC(=O)Nc1c(OC(F)(F)F)ccc(C(=O)Nc2nnnn2C)c1Cl` on Echinochloa crus-galh (ECHCG), PRE Application ECHCG, percentage damage on five-point scale = 5 (5=80-100%)

PRE Application ECHCG, percentage damage on five-point scale for Echinochloa crus-galh (ECHCG) with input `Cc1nc(C(=O)Nc2c(OC(F)F)ccc(C(=O)Nc3nnnn3C)c2Cl)cs1` equals 5 (5=80-100%)

The measured PRE Application ECHCG, percentage damage on five-point scale that `Cc1cc(C(=O)Nc2c(OC(F)F)ccc(C(=O)Nc3nnnn3C)c2Cl)no1` showed for Echinochloa crus-galh (ECHCG) is 2 (2=20-39%)

Test item CCn1nnnc1NC(=O)c1ccc(OC(F)(F)F)c(NC(=O)C(C)OC)c1Cl (centres unmarked) ; Echinochloa crus-galh (ECHCG); reported PRE Application ECHCG, percentage damage on five-point scale was 5 (5=80-100%)

---

Attribute: PRE Application ECHCG, percentage damage on five-point scale
Tested on: Echinochloa crus-galh (ECHCG)
run.description: Pre-emergence herbicidal glasshouse test (Table B1)
Format: in vivo
measurement.parameters: applied at 125 g/ha, evaluated after 13 days

• CCC(COC)C(=O)Nc1c(OC(F)(F)F)ccc(C(=O)Nc2nnnn2CC)c1Cl (stereo not drawn) = 5 (5=80-100%)

Entry `Cc1nc(C)c(C(=O)Nc2c(OC(F)F)ccc(C(=O)Nc3nnnn3C)c2Cl)s1` , PRE Application ECHCG, percentage damage on five-point scale reported as 5 (5=80-100%)

compound `CCC(=O)N(CC)c1c(OC(F)F)ccc(C(=O)Nc2nnnn2CC)c1Cl` , PRE Application ECHCG, percentage damage on five-point scale observed: 5 (5=80-100%)

---

Tested on: Amaranthus retoflexus (AMARE)
run.description: Pre-emergence herbicidal glasshouse test (Table B1)
Type: in vivo
measurement.parameters: applied at 125 g/ha, evaluated after 13 days
Procedure: Seeds of a variety of test species are sown in standard soil in pots (Lolium perenne (LOLPE), Amaranthus retoflexus (AMARE), Abutilon theophrasti (ABUTH), Setaria faberi (SETFA), Echinochloa crus-galh (ECHCG), Ipomoea hederacea (IPOHE)). […] After 13 days for pre and post-emergence, the test is evaluated for the percentage damage caused to the plant. […]
property.name: PRE Application AMARE, percentage damage on five-point scale

Answered cases to consult:
- Cn1nnnc1NC(=O)c1ccc(OC(F)F)c(NC(=O)c2ncc(Cl)cc2Cl)c1Cl: 5 (5=80-100%)
- Cc1cc(C(=O)Nc2c(OC(F)F)ccc(C(=O)Nc3nnnn3C)c2Cl)no1: 4 (4=60-79%)
- CCCOCC(=O)Nc1c(OC(F)(F)F)ccc(C(=O)Nc2nnnn2CC)c1Cl: 5 (5=80-100%)

Lab book: PRE Application AMARE, percentage damage on five-point scale of `Cn1nnnc1NC(=O)c1ccc(OC(F)F)c(NC(=O)c2nc(Cl)ccc2Cl)c1Cl` noted as 5 (5=80-100%)

---

PRE Application ECHCG, percentage damage on five-point scale reference
System: Echinochloa crus-galh (ECHCG)
run.description: Pre-emergence herbicidal glasshouse test (Table B1)
Format: in vivo
measurement.parameters: applied at 500 g/h, evaluated after 13 days

Use these answered entries as a reference point.
- CC(=O)Nc1c(OCC(F)(F)F)ccc(C(=O)Nc2nnnn2C)c1Cl: 3 (3=40-59%)
- CCn1nnnc1NC(=O)c1ccc(OC(F)(F)F)c(NC(=O)C2CCC2)c1Cl: 4 (4=60-79%)
- CCn1nnnc1NC(=O)c1ccc(OC(F)(F)F)c(NC(=O)C(C)(C)C)c1Cl: 5 (5=80-100%)
- COc1ccc(C(=O)Nc2nnnn2C)c(Cl)c1NC(=O)C(C)F (stereo not drawn): 4 (4=60-79%)
- CCC(=O)Nc1c(OC(F)(F)F)ccc(C(=O)Nc2nnnn2CC)c1Cl: 5 (5=80-100%)
- CCn1nnnc1NC(=O)c1ccc(OC(F)(F)F)c(NC(=O)C2CC2)c1Cl: 5 (5=80-100%)
- Cc1nnc(NC(=O)c2ccc(OC(F)(F)F)c(N3CCCCC3=O)c2Cl)o1: 5 (5=80-100%)
- CNc1c(OC(F)(F)F)ccc(C(=O)Nc2nnnn2C)c1Cl: 5 (5=80-100%)
- Cn1nnnc1NC(=O)c1ccc(OC(F)(F)F)c(NC(=O)C2CCC2)c1Cl: 5 (5=80-100%)
- CC(C)CC(=O)Nc1c(OC(F)(F)F)ccc(C(=O)Nc2nnnn2C)c1Cl: 5 (5=80-100%)

# lookup: `CCC(=O)Nc1c(OC(F)(F)C(F)F)ccc(C(=O)Nc2nnnn2C)c1Cl` on Echinochloa crus-galh (ECHCG), PRE Application ECHCG, percentage damage on five-point scale = 4 (4=60-79%)

Fill in: Echinochloa crus-galh (ECHCG) PRE Application ECHCG, percentage damage on five-point scale for Cn1nnnc1NC(=O)c1ccc(OC(F)(F)F)c(NC(=O)C2CC2(F)F)c1Cl (stereo not drawn) = 5 (5=80-100%)

Tested on Echinochloa crus-galh (ECHCG): `CCn1nnnc1NC(=O)c1ccc(OC(F)(F)F)c(NC(=O)c2ncccc2F)c1Cl` . Observed PRE Application ECHCG, percentage damage on five-point scale: 1 (1=0-19%)

Measured PRE Application ECHCG, percentage damage on five-point scale for this entry `CCn1nnnc1NC(=O)c1ccc(OC(F)(F)F)c(NC(C)=O)c1Cl` on Echinochloa crus-galh (ECHCG): 4 (4=60-79%)

Kindly note: Echinochloa crus-galh (ECHCG), `Cn1nnnc1NC(=O)c1ccc(OC(F)(F)F)c(NC(=O)C(C)(C)C)c1Cl` , PRE Application ECHCG, percentage damage on five-point scale value reported: 5 (5=80-100%)

---

System: Ipomoea hederacea (IPOHE)
run.description: Pre-emergence herbicidal glasshouse test (Table B1)
Format: in vivo
measurement.parameters: applied at 125 g/ha, evaluated after 13 days
property.name: PRE Application IPOHE, percentage damage on five-point scale

* Cn1nnnc1NC(=O)c1ccc(OC(F)F)c(NC(=O)c2cc(C(F)(F)F)ccn2)c1Cl [Compound 1.053] | 4 (4=60-79%)

CCn1nnnc1NC(=O)c1ccc(OC(F)(F)F)c(NC(=O)CCCOC)c1Cl [Compound 1.067] yielded PRE Application IPOHE, percentage damage on five-point scale of 5 (5=80-100%)

Query Cn1nnnc1NC(=O)c1ccc(OC(F)F)c(NC(=O)c2ncc(Cl)cc2Cl)c1Cl [Compound 1.087] yields PRE Application IPOHE, percentage damage on five-point scale of 4 (4=60-79%)

In plain terms, CCOCCC(=O)Nc1c(OC(F)(F)F)ccc(C(=O)Nc2nnnn2C)c1Cl [Compound 1.057] has a documented PRE Application IPOHE, percentage damage on five-point scale of 5 (5=80-100%)

The value of PRE Application IPOHE, percentage damage on five-point scale measured for the molecule Cn1nnnc1NC(=O)c1ccc(OC(F)(F)F)c(NC(=O)C(C)(F)F)c1Cl [Compound 1.061] turned out to be 3 (3=40-59%)

The reported PRE Application IPOHE, percentage damage on five-point scale of the molecule COc1ccc(C(=O)Nc2c(OC(F)F)ccc(C(=O)Nc3nnnn3C)c2Cl)cc1 [Compound 1.101] was 2 (2=20-39%)

Sample COc1cccc(C(=O)Nc2c(OC(F)F)ccc(C(=O)Nc3nnnn3C)c2Cl)n1 [Compound 1.085] ; PRE Application IPOHE, percentage damage on five-point scale observed: 3 (3=40-59%)

Form: molecule = CCN(C(=O)C(C)F)c1c(OC(F)F)ccc(C(=O)Nc2nnnn2C)c1Cl (stereo not shown) [Compound 1.026] ; PRE Application IPOHE, percentage damage on five-point scale = 4 (4=60-79%)

Please fill in: PRE Application IPOHE, percentage damage on five-point scale reported for Cc1nnc(NC(=O)c2ccc(OC(F)(F)F)c(NC(=O)C3CC3)c2Cl)o1 [Compound 1.115] = 2 (2=20-39%)

Entry Cn1nnnc1NC(=O)c1ccc(OC(F)F)c(NC(=O)c2ccccn2)c1Cl [Compound 1.108] , PRE Application IPOHE, percentage damage on five-point scale reported as 2 (2=20-39%)
